- Test system: Karpas-422 cell lines
- Procedure Details: Karpas-422 viability assay (Cell Titer-Glo, Day 8)
- Format: cell-based
- Measurement Context: Homo sapiens, KARPAS-422, 192 h, Cell Titer-Glo on Day 8
- Description: Karpas-422 cell lines were obtained from DSMZ (Braunschweig, Germany) and were grown in RPMI-1640 media. All media contained 10% fetal bovine serum (FBS) and 1% penicillin/streptomycin (Invitrogen). 20K cells per well were plated onto 96 well compound coated plates. […] Relative cell numbers were assessed by Cell Titer-Glo luminescent cell viability assay (Promega) on Day 8. […]
I'd appreciate it if you could supply GI50 values for the items below.
One number for each entry, in nM.

Observe how each entry below is paired with its result.
INSERT INTO results (compound, measured_endpoint, reported_measurement) VALUES
  ('CSc1nc(C)[nH]c(=O)c1CNC(=O)c1cc(Cl)c2c(c1C)OC(C)(C1CCC(N3CC(OC(F)F)C3)CC1)O2 (single isomer, unassigned) [Example 10]', 'GI50', 20),
  ('CSc1cc(C)[nH]c(=O)c1CNC(=O)c1cc(Cl)c2c(c1C)OC(C)(C1CCC(N3CC(OC(F)F)C3)CC1)O2 (single isomer, unassigned) [Example 1]', 'GI50', 3.9),
  ('CSc1cc(Cl)[nH]c(=O)c1CNC(=O)c1cc(Cl)c2c(c1C)OC(C)(C1CCC(N3CC(OC(F)F)C3)CC1)O2 (single isomer, unassigned) [Example 2]', 'GI50', 250),
  ('CSc1cc(Cl)[nH]c(=O)c1CNC(=O)c1cc(Cl)c2c(c1C)O[C@@](C)([C@H]1CC[C@H](N(C)C)CC1)O2 [Example 3]', 'GI50', 29),
  ('CSc1cc(C)[nH]c(=O)c1CNC(=O)c1cc(Cl)c2c(c1C)OC(C)(C1CCC(NC3(CF)COC3)CC1)O2 (single isomer, unassigned) [Example 11 (geometric isomer 1)]', 'GI50', 8.6),
  ('Cc1cc(Cl)c(CNC(=O)c2cc(Cl)c3c(c2C)OC(C)(C2CCC(N4CC(OC(F)F)C4)CC2)O3)c(=O)[nH]1 (single isomer, unassigned) [Example 13]', 'GI50', 9.7);

# input for lookup
Prompt: Provide one value: measured GI50 of Cc1cc(Cl)c(CNC(=O)c2cc(Cl)c3c(c2C)OC(C)(C2CCC(N4CC(OC5CC5)C4)CC2)O3)c(=O)[nH]1 (single isomer, unassigned) [Example 8]
Response: 5

====

I'd appreciate it if you could supply residence time values for the items below.
- System Tested: PRC2 containing wt EZH2 (Homo sapiens (Human), UniProt Q15910)
- Sequence (Q15910 whole entry): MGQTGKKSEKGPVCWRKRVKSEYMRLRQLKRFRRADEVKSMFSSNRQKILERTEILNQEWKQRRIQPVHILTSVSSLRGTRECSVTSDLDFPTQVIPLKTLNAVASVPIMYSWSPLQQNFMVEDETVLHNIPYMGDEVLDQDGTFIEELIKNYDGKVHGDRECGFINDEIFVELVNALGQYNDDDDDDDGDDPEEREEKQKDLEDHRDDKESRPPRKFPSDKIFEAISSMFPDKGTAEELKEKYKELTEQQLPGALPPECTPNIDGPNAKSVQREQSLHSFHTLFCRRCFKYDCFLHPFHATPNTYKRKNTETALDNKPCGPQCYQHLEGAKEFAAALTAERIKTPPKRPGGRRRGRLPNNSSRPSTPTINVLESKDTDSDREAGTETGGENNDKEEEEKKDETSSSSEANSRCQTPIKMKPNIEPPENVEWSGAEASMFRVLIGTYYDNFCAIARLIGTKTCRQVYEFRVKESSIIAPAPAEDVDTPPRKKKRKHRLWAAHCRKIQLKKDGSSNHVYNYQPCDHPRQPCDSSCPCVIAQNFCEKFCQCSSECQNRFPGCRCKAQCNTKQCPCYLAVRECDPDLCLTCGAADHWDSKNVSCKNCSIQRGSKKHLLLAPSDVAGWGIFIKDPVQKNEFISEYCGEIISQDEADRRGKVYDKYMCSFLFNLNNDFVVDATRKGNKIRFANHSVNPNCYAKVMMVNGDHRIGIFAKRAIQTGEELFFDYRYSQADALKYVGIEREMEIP
- Sequence (O75530 whole entry partner): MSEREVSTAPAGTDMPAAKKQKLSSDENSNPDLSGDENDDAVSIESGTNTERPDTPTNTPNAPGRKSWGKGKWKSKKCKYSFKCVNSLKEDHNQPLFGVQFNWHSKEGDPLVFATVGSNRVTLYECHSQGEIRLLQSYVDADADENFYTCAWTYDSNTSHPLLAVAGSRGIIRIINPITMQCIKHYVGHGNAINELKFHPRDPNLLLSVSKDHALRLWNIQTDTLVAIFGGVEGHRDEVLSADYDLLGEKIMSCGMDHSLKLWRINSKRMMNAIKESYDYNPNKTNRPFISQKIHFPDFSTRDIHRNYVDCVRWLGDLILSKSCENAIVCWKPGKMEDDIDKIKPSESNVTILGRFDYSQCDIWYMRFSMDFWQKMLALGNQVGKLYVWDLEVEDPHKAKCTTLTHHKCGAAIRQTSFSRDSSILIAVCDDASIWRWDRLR
- Sequence (Q15022 whole entry partner): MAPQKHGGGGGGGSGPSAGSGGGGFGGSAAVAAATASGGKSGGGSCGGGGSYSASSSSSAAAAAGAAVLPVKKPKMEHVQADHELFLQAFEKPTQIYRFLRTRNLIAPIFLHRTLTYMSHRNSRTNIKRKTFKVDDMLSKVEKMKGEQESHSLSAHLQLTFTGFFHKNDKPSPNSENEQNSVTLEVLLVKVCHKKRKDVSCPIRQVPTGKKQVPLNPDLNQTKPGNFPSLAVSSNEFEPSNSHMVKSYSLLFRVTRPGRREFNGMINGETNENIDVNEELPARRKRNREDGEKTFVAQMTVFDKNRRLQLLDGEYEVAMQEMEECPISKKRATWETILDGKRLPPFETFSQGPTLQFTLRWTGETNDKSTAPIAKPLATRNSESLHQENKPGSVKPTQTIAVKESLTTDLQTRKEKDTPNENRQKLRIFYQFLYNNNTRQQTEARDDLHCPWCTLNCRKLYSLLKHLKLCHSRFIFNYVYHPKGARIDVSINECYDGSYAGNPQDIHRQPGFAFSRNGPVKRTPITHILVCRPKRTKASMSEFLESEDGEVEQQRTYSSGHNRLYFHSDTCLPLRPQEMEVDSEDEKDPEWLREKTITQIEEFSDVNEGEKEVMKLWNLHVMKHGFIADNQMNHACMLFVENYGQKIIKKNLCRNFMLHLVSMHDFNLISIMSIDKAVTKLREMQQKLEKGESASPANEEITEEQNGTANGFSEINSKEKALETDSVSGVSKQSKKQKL
- Sequence (Q09028 whole entry partner): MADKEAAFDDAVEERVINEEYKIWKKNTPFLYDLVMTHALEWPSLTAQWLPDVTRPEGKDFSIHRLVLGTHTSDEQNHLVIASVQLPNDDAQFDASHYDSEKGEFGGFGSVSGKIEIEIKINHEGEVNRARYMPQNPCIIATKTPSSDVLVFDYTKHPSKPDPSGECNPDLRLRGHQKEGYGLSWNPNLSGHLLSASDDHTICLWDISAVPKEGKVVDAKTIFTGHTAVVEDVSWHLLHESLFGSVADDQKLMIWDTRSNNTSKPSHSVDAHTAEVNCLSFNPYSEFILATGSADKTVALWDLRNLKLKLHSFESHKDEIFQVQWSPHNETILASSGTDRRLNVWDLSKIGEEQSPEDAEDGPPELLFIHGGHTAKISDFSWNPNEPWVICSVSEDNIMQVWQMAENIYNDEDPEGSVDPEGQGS
- Sequence (Q6ZN18 whole entry partner): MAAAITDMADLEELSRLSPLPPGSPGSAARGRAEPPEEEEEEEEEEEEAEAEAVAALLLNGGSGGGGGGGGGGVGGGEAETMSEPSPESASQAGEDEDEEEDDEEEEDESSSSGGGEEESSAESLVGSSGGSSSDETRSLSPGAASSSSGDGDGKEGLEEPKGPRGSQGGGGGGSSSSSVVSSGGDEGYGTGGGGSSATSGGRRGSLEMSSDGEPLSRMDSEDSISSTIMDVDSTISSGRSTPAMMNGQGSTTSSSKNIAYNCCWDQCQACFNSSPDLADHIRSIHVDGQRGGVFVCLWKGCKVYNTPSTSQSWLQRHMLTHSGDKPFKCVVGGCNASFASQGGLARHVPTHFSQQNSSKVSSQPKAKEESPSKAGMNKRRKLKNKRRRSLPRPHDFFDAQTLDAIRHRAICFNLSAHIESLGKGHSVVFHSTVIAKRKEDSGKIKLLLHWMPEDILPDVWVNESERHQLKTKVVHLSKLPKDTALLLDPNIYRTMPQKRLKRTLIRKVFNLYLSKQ
- Procedure Details: EZH2 residence time assay (100-fold dilution of enzyme-inhibitor complex)
- Assay type: biochemical
- Measurement Context: recovery of enzyme activity after 100-fold dilution; read-out: EZH2 residence time (converted)

Observe how each entry below is paired with its result.
INSERT INTO assay_data (compound, reported_measurement) VALUES
  ('COC1CN(C2CCC(C3(C)Oc4c(Cl)cc(C(=O)NCc5c(SC)cc(C)[nH]c5=O)c(C)c4O3)CC2)C1 (single isomer, unassigned) [Example 17]', '> 6000 min'),
  ('CSc1cc(C)[nH]c(=O)c1CNC(=O)c1cc(Cl)c2c(c1C)OC(C)(C1CCC(N3CC(OC4CC4)C3)CC1)O2 (single isomer, unassigned) [Example 9]', '> 6000 min'),
  ('Cc1cc(Cl)c(CNC(=O)c2cc(Cl)c3c(c2C)OC(C)(C2CCC(N4CC(OC5CC5)C4)CC2)O3)c(=O)[nH]1 (single isomer, unassigned) [Example 8]', '> 6000 min');

# input for lookup
Prompt: Provide one value: measured residence time of CSc1cc(C)[nH]c(=O)c1CNC(=O)c1cc(Cl)c2c(c1C)OC(C)(C1CCC(N3CC(F)C3)CC1)O2 (single isomer, unassigned) [Example 12]
Response: > 6000 min

Source listed as patent US11274095B2.
